B1: 5KPH (parent)
chain: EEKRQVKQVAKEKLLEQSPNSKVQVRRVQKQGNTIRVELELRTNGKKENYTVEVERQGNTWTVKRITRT

Variants of: B1
Test: folding stability dG (cDNA display proteolysis); higher = more stable
Conditions: PBS, room temperature
measure-name: folding stability dG (kJ/mol)
Dear colleague, please return just the value in kJ/mol, with no unit written.

Guide cases for folding stability dG, answers given:
EEKRQVKQVAKEKLLEQSPNAKVQVRRVQKQGNTIRVELELRTNGKKENYTVEVERQGNTWTVKRITRT [S21A]: 16.6
EEKRQVKQVAKEKLLEQSPNSLVQVRRVQKQGNTIRVELELRTNGKKENYTVEVERQGNTWTVKRITRT [K22L]: 16.7
EEKRQVKQVAKEKLLEQSPNSKVQVRRVQKQGNTIRVELELRTNGKHENYTVEVERQGNTWTVKRITRT [K47H]: 16.5

get_value(item= EEKRQVKQVAKEKLLIQSPNSKVQVRRVQKQGNTIRVELELRTNGKKENYTVEVERQGNTWTVKRITRT [E16I] , readout=folding stability dG) returns 12.7

The variant listed as EEKRMVKQVAKEKLLEQSPNSKVQVRRVQKQGNTIRVELELRTNGKKENYTVEVERQGNTWTVKRITRT [Q5M] shows folding stability dG equal to 17

Form: variant = EEKRQVKQVAKEKLLEQSPNSKVQVRRVQKQGNTIRVELQLRTNGKKENYTVEVERQGNTWTVKRITRT [E40Q] ; folding stability dG = 16.3

Consider EEKRQVKQVAKEKLLEQSPNSKVQVRRVQKQGNDIRVELELRTNGKKENYTVEVERQGNTWTVKRITRT [T34D] . Its measured folding stability dG is 12.3
